- target: DNA gyrase subunit B (Staphylococcus aureus, UniProt P0A0K8)
- assay_method_text: Inhibition of Staphylococcus aureus DNA gyrase subunit B ATPase activity assessed as consumption of inorganic phosphate by PNP-based absorbance assay
result_type: IC50 (µM)

[I] O=C(O)C[C@H](c1ccccc1)N1C(=O)/C(=C/c2ccccc2Cl)SC1=S
[II] O=C(O)C[C@H](C(=O)O)N1C(=O)/C(=C\c2ccc(-c3cc(Cl)ccc3Cl)o2)SC1=S
Hi there, can you help? I need to know whether I or II has lower measured IC50. Kindly give the label for the entry you pick.
II
(II: 30 µM, I: 100 µM)

====

- System: Staphylococcus aureus
- assay_method_text: Antimicrobial activity against Staphylococcus aureus carolina after 24 hrs by two-fold serial dilution method
- Format: functional
result_type: MIC (µM)

O=C(O)C[C@H](c1ccccc1)N1C(=O)/C(=C/c2ccccc2Cl)SC1=S :: 46.5

[P] CCc1ccccc1N1C(=O)/C(=C/c2cccc(O)c2)SC1=S
[Q] O=C(O)C[C@H](C(=O)O)N1C(=O)/C(=C\c2ccc(-c3cc(Cl)ccc3Cl)o2)SC1=S
Hi there, can you help? I need to know whether P or Q has lower measured MIC. Kindly give the label for the entry you pick.
P
(P: 27 µM, Q: 159 µM)
